Reported melting point is given for each of the following compounds.

- Compound: "CC(=O)OCC1CC(=O)NN=C1c1ccc2c(c1)CCC(=O)N2C (stereo unspecified)"
  melting point: "149 to 153 °C"
- Compound: "CCC1(NC2=NS(=O)(=O)c3sc(Cl)cc3N2)CCC1"
  melting point: "244 to 246 °C"
- Compound: "CC#CCOc1ccc(SC(C(=O)NO)c2ccc(Br)cc2)cc1 (stereo unspecified)"
  melting point: "153 °C"
- Compound: "Cc1nnsc1C(=O)Nc1ccc(-n2nc(C(F)(F)F)cc2OC(F)F)cc1"
  melting point: "122 to 123 °C"
- Compound: "CC(C)CCSc1cc(C(=O)O)cc(N)c1Oc1ccccc1"
  melting point: "132 to 133 °C"

Lookup: Please report the recorded melting point for CCCCCCCCCCCCCCCCC(N)C(O)CO (stereo unspecified) .
Found: 92 to 93 °C

----------
Measurement type: melting point

// worked examples, melting point included
- Compound: "S=C(Nc1ccccc1)N1CCN(c2nc3cccccc-3n2)CC1"
  Result: "267 to 269 °C"
- Compound: "CN(C)c1nsc2nc3ccccc3n12"
  Result: "102 to 104 °C"

Lookup: What value of melting point has been reported for the following compound? CCS(=O)c1nnc2n1C=Cc1ccccc1C2 (stereo unspecified)
Found: 98 to 99 °C

Lookup: Could you tell me which melting point is on file for O=C(c1ccc2nonc2c1)N1C2CCC1COC2 ?
Found: 139 to 140 °C

Lookup: Return reported melting point; argument: CCOC(=O)c1cc(OCc2ccccc2)c2ccc(C#N)cc2c1
Found: 125 °C

Lookup: Dear colleague, I am looking for the recorded melting point of the following compound: COC(=O)CCc1cc2c(c(C(C)(C)C)c1)OC(=O)C2c1cc(C)ccc1C (stereo unspecified)
Found: 80 °C

----------
The entries below are paired with their reported melting point.

Lookup: Quick check: melting point of Cc1nc(N2C[C@H](C)N(Cc3ccc(F)cc3)C2=O)sc1C(=O)NCc1ccc(F)c(F)c1 ?
Found: 62 to 65 °C

Lookup: Suppose we examine the molecule COC(=O)c1ccc(/C=C/Cc2cc3c(cc2C)CCC(C)(C)CC3)cc1 ; what melting point value has been reported?
Found: 59 to 60 °C

Lookup: What melting point value was documented for this molecule, CSc1ccc(C(=O)O)cc1OC1CCCC1 ?
Found: 158 to 160 °C

Lookup: Fill in the blank: the reported melting point of O=C(O)CC1CCN(Cc2ccccc2)C1c1c(Cl)cccc1Cl (centres undefined) is ____.
Found: 186 to 188 °C

Lookup: Form field: reported melting point of OCCN1CCC(=C2c3ccccc3Sc3ccc(Cl)cc32)CC1
Found: 178 to 180 °C

Lookup: // query melting point value for entry O=c1c2cc(F)c(N3CCCC3)nc2n(-c2cccc(C(F)(F)F)c2)c(=O)n1O
Found: 136 to 138 °C

Lookup: What value of measured melting point is listed for O=C1CCC2(CCC(=O)N2c2ccc(Cc3ccc(N4C(=O)CCC45CCC(=O)O5)cc3)cc2)O1 (centres undefined) ?
Found: 135 °C

Lookup: Bench note: what melting point did NC(=O)C(c1ccc(C(=O)O)cc1)C(CCc1ccccc1)c1ccccc1N1CCCCC1 (centres undefined) show?
Found: 167 to 170 °C

Lookup: Using the record for CC(C)(C)c1nc(C=CC(=O)COc2ccccc2)nc(C(C)(C)C)c1O , report its melting point.
Found: 98 to 100 °C
